These data points were gathered from paper PMC5125710.

- Test system: HIV-1 NLRepRlucP373S V370A/Δ371T
- method summary: microbe, parasite or virus in culture
- Type: cell-based
- settings: Human immunodeficiency virus 1, MC assay
Measured EC50, listed per entry.
Entry rule: numbers only, all in nM.

C=C(C)[C@@H]1CC[C@]2(NCCN3CCS(=O)(=O)CC3)CC[C@]3(C)[C@H](CC[C@@H]4[C@@]5(C)CC=C(c6ccc(C(=O)O)cc6)C(C)(C)[C@@H]5CC[C@]43C)[C@@H]12 | 6.6

Pending compound:
Input: So what EC50 did Cc1c(O)cccc1C(=O)N[C@@H](CSc1ccccc1)[C@H](O)CN1C[C@H]2CCCC[C@H]2C[C@H]1C(=O)NC(C)(C)C [NFV, nelfinavir, reference compound] get with HIV-1 NLRepRlucP373S V370A/Δ371T?
Output: 5.7

====

Measured EC50, listed per entry.
- Test system: HIV-1 NLRepRlucP373S V370M
- method summary: microbe, parasite or virus in culture
- Type: cell-based
- settings: Human immunodeficiency virus 1, MC assay
Entry rule: numbers only, all in nM.

C=C(C)[C@@H]1CC[C@]2(NCCN3CCS(=O)(=O)CC3)CC[C@]3(C)[C@H](CC[C@@H]4[C@@]5(C)CC=C(c6ccc(C(=O)O)cc6)C(C)(C)[C@@H]5CC[C@]43C)[C@@H]12 | 2.8

Pending compound:
Input: Name the recorded EC50 for Cc1c(O)cccc1C(=O)N[C@@H](CSc1ccccc1)[C@H](O)CN1C[C@H]2CCCC[C@H]2C[C@H]1C(=O)NC(C)(C)C [NFV, nelfinavir, reference compound] .
Output: 4.5

====

Measured EC50, listed per entry.
- Tested on: HIV-1 NLRepRlucP373S V362I
- method summary: microbe, parasite or virus in culture
- Type: cell-based
- settings: Human immunodeficiency virus 1, V362I virus, MC assay
Entry rule: numbers only, all in nM.

C=C(C)[C@@H]1CC[C@]2(NCCN3CCS(=O)(=O)CC3)CC[C@]3(C)[C@H](CC[C@@H]4[C@@]5(C)CC=C(c6ccc(C(=O)O)cc6)C(C)(C)[C@@H]5CC[C@]43C)[C@@H]12 | 4.5
C=C(C)[C@@H]1CC[C@]2(C(=O)O)CC[C@]3(C)[C@H](CC[C@@H]4[C@@]5(C)CC=C(c6ccc(C(=O)O)cc6)C(C)(C)[C@@H]5CC[C@]43C)[C@@H]12 | 213

Pending compound:
Input: So what EC50 did Cc1c(O)cccc1C(=O)N[C@@H](CSc1ccccc1)[C@H](O)CN1C[C@H]2CCCC[C@H]2C[C@H]1C(=O)NC(C)(C)C [NFV, nelfinavir, reference compound] get with HIV-1 NLRepRlucP373S V362I?
Output: 4.3

====

- tgt: V362I HIV-1 Gag VLPs (Human immunodeficiency virus type 1 group M subtype B, UniProt P03348, V362I)
- Construct: constructed to encode full length HIV-1 LAI Gag; made in house; host or cells: 293T cells, transfected with pGagOpt plasmid
- method summary: biochemical
- Assay type: binding
- settings: V362I VLP, competition displacement of [3H]-BMS-977660; read-out: Kd
measured metric: Kd
Give the value; after it, write the unit.

Input: Name the recorded Kd for "C=C(C)[C@@H]1CC[C@]2(C(=O)O)CC[C@]3(C)[C@H](CC[C@@H]4[C@@]5(C)CC=C(c6ccc(C(=O)O)cc6)C(C)(C)[C@@H]5CC[C@]43C)[C@@H]12" .
Output: 49 nM

====

- tgt: V370A HIV-1 Gag VLPs (Human immunodeficiency virus type 1 group M subtype B, UniProt P03348, V370A)
- Construct: constructed to encode full length HIV-1 LAI Gag; made in house; host or cells: 293T cells, transfected with pGagOpt plasmid
- method summary: biochemical
- Assay type: binding
- settings: V370A VLP, competition displacement of [3H]-BMS-977660; read-out: Kd
measured metric: pKd
Just so you know, pKd here is -log10 of the concentration in molar units; reply with that number alone.

Input: Name the recorded pKd for "C=C(C)[C@@H]1CC[C@]2(C(=O)O)CC[C@]3(C)[C@H](CC[C@@H]4[C@@]5(C)CC=C(c6ccc(C(=O)O)cc6)C(C)(C)[C@@H]5CC[C@]43C)[C@@H]12" .
Output: 6.75
